Every entry's value here was drawn from patent US20260258115A1.

Target: RSV F on RSV subtype A virus (RSV-A2) (Respiratory Syncytial Virus, subtype A, …, UniProt P03420 26-574)
Assay: cell-based or functional assay
measure.name: neut IC50 (ug/ml) subtype A (wright) (µg/mL)
Field format: number, assumed µg/mL, no unit text.

Determine its reported neut IC50 (ug/ml) subtype A (wright): ADI-41302 (antibody, V domains shown) VH: QVQLVESGGGVVQPGRSLRLSCAASGFTFSSYAMQWVRQAPGKGLEWVAVMTNDGDDKYYADSVRGRFTISRDNSKNTLYLQMNNLRPEDTAVYYCARDLFEWWELLGYCYAMDVWGQGTTVTVSS VL: QSVLTQPPSASGSPGQSVTISCTGTSSDVGAYNYVSWYQQHPGKAPKLIIYEVYKRPSGVPDRFFGSKSGNTASLTVSGLQAEDEADYYCSSYAGSNTLGVFGGGTKVTVL
0.006

Next:
Determine its reported neut IC50 (ug/ml) subtype A (wright): ADI-36672 (antibody, V domains shown) VH: EVQLVESGGGLVKPGGSLRLSCAASGFAFNNYYMNWVRQAPGKGLEWVSSISSASTYTDYADSVKGRFTISRDNAKNSLYLHLNSLRAEDTAVYYCARDYYGSGNYYNPKPLDVWGQGTTVTVSS VL: QPVLTQPPSVSGAPGQRVTISCTGSSSNIGAGYDVHWYRQFPGTAPELLIYGNTNRPSGVPDRFSGSKSGTSASLAITGLQAEDEADYYCQSYDSSLKGVFGGGTKLTVL
0.018
